assay: Beagle dog PK study 1 (IV and PO, propylene glycol-based formulation); assay type: in vivo; conditions: beagle, dog, plasma, po, 5 mg/kg, PK study 1, PO 5 mg/kg, 1 h, Test Animal 3; read-out: Plasma concentration
outcome.measure: concentration at 1 h (ng/mL)
Your answer should be a plain number; it is taken to be in ng/mL.

Req: Identify measured concentration at 1 h corresponding to CNC(=O)c1[nH]c(C(=O)NC2CCC2)cc1O[C@@H](C)c1ccccc1
Resp: 2240

###

experiment: Beagle dog PK study 1 (IV and PO, propylene glycol-based formulation); type: in vivo; conditions: beagle, dog, plasma, po, 5 mg/kg, PK study 1, PO 5 mg/kg, 24 h; read-out: Average plasma concentration, Mean
outcome.measure: concentration at 24 h
Write your answer as a measured quantity: the number, then the unit.

Req: Identify measured concentration at 24 h corresponding to CNC(=O)c1[nH]c(C(=O)NC2CCC2)cc1O[C@@H](C)c1ccccc1 [Example 101]
Resp: 1.53 ng/mL
